- TARGET SYSTEM: saccharase (porcine intestinal mucosa) (Sus scrofa, UniProt P56729)
- Construct: prepared from porcine intestinal mucosa; from tissue; host or cells: porcine intestinal mucosa
- Sequence (P56729 with tags, fused parts or gaps limits assumed): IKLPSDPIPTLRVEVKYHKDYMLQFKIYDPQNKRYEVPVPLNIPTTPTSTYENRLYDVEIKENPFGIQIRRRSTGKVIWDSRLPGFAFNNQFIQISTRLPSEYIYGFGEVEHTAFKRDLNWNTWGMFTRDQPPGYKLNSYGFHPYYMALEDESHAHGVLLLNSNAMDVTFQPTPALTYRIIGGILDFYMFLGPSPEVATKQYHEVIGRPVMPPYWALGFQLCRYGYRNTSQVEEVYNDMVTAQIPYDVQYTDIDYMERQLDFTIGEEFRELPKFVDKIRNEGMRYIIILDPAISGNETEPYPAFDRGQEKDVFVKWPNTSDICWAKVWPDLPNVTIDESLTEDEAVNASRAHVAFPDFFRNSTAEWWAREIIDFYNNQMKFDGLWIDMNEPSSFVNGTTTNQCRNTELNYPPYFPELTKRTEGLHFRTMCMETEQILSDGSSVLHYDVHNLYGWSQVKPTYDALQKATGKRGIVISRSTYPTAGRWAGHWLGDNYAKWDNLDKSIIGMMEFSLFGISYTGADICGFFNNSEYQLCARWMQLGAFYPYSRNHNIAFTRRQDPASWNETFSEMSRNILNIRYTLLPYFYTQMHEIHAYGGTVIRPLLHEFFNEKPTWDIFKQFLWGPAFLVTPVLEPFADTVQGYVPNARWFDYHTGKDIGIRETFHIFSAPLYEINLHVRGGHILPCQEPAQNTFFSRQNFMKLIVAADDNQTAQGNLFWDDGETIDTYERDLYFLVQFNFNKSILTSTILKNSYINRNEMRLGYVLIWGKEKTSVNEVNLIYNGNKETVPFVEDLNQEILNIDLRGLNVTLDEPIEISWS
- Sequence (P56729 with tags, fused parts or gaps partner limits assumed): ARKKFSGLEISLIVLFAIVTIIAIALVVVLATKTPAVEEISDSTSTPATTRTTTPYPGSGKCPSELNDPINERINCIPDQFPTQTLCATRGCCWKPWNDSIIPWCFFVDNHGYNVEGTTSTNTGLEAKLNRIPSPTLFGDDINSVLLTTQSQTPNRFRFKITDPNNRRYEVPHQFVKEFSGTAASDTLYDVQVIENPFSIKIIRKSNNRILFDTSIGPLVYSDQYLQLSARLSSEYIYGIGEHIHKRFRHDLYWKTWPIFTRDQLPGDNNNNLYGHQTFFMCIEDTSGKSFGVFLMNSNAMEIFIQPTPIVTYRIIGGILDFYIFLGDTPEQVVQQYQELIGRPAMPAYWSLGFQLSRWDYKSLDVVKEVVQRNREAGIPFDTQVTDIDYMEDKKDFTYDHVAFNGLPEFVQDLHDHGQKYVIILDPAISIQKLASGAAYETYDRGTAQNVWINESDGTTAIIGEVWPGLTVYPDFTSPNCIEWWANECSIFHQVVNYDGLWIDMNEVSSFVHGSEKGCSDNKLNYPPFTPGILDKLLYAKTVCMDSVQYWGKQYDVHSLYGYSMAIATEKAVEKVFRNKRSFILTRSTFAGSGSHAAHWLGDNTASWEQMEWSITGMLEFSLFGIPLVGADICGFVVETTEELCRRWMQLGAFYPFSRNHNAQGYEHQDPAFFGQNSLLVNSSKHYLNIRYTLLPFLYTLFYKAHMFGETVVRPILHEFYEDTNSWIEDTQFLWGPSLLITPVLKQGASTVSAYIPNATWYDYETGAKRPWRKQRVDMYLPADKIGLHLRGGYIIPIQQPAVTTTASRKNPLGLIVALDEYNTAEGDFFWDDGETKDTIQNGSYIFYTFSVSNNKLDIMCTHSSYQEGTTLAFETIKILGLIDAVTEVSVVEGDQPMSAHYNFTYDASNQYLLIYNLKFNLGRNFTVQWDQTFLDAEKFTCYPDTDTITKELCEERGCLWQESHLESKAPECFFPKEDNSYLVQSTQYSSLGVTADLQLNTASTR
- ASSAY COMMENT: Glucosidase inhibitory activity, saccharase (sucrose as substrate)
- Format: biochemical
- STUDY CONDITIONS: pH 6.8, 37° C., 10 minutes
Listed below: IC50 values for each entry.
// return numeric value only (unit: nM, not printed)

COMPOUND	TARGET SYSTEM	RECORDED ENDPOINT	TEST VALUE
CO[C@H]1O[C@H](C)[C@@H](N[C@H]2C[C@H](CO)[C@@H](O)[C@H](O)[C@H]2O)[C@H](O)[C@H]1O [Example 1,6-deoxyglucopyranoside isomer]	saccharase (porcine intestinal mucosa) (Sus scrofa, UniProt P56729)	IC50	740
O=C(N[C@H]1C[C@H](CO)C(N[C@H]2C[C@H](CO)[C@@H](O)[C@H](O)[C@H]2O)[C@H](O)[C@H]1O)OCc1ccccc1 (stereo partly shown)	saccharase (porcine intestinal mucosa) (Sus scrofa, UniProt P56729)	IC50	700
OC[C@H]1C[C@H](N[C@@H]2C[C@H](CO)[C@@H](O)[C@H](O)[C@H]2O)[C@H](O)[C@@H](O)[C@@H]1O [Example 17, (1R,2S) isomer]	saccharase (porcine intestinal mucosa) (Sus scrofa, UniProt P56729)	IC50	270

Entry CO[C@H]1O[C@H](CO)[C@@H](N[C@H]2C[C@H](CO)[C@@H](O)[C@H](O)[C@H]2O)[C@H](O)[C@H]1O [Example 3, Glucopyranoside isomer] , IC50 reported as 580
